For each of the compounds below, state its Chemiluminescence intensity ratio (HEK293/NF-κB-RE/FOXP3 cells / HEK293/NF-κB-RE cells).
Target: FOXP3 (Homo sapiens, UniProt Q9BZS1)
Construct: expressed in transfected cells
Sequence (Q9BZS1 1-431): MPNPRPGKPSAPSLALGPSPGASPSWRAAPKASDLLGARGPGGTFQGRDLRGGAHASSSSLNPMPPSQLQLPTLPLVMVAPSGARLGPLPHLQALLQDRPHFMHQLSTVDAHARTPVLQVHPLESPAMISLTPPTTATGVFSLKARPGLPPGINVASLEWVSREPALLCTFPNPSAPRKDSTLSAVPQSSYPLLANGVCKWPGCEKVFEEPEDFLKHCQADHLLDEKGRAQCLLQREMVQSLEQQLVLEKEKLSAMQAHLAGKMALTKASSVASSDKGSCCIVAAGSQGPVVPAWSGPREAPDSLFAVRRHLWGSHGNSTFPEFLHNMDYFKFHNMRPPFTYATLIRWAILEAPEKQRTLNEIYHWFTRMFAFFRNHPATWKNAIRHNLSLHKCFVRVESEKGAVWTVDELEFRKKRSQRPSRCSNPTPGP
Assay: FOXP3 function inhibitory activity, NF-κB luciferase reporter in HEK293/NF-κB-RE/FOXP3 cells with TNF-alpha
Type: cell-based
Details: test drug concentration 0.03 (μM); DMSO control = 1.0

List reported Chemiluminescence intensity ratio (HEK293/NF-κB-RE/FOXP3 cells / HEK293/NF-κB-RE cells) for each of these compounds:
1. COc1cccc2c1C(=O)c1c(O)c3c(c(O)c1C2=O)C[C@@](O)(C(=O)CO)C[C@@H]3O[C@H]1C[C@H](N)[C@H](O[C@@H]2CCCCO2)[C@H](C)O1 [Pirarubicin, pirarubicin]
2. CC(=O)[C@]1(O)Cc2c(O)c3c(c(O)c2[C@@H](O[C@H]2C[C@H](N)[C@H](O)[C@H](C)O2)C1)C(=O)c1ccccc1C3=O [Idarubicin, idarubicin]
3. COc1cccc2c1C(=O)c1c(O)c3c(c(O)c1C2=O)C[C@@](O)(C(C)=O)C[C@@H]3O[C@H]1C[C@H](N)[C@H](O)[C@H](C)O1 [Daunorubicin, daunorubicin]
4. COc1cccc2c1C(=O)c1c(O)c3c(c(O)c1C2=O)C[C@@](O)(C(=O)CO)C[C@@H]3O[C@H]1C[C@H](N)[C@@H](O)[C@H](C)O1 [Epirubicin, epirubicin]
5. COc1cccc2c1C(=O)c1c(O)c3c(c(O)c1C2=O)C[C@@](O)(C(=O)CO)C[C@@H]3O[C@H]1C[C@H](N)[C@H](O)[C@H](C)O1 [Doxorubicin, doxorubicin]

Result ::
1.08
1.21
1.12
1.39
1.08
